TGI values for the compounds below.
# Tested on: RPMI-8226 leukemia
# run-description: NCI tumour cell line growth inhibition, 48 h
Field format: number, assumed µM, no unit text.

compound: FC(F)(F)c1ccc(Nc2nc(-c3c(C(F)(F)F)nc4ccccn34)cs2)cc1
units-label: µM
TGI: 6.01

compound: O=C(CC(=O)N(C(=O)/C=C\c1ccccc1)c1ccc(Cl)cc1)N1N=C(c2ccccc2)C(N=Nc2cccc([N+](=O)[O-])c2)C1=O (stereo not given)
units-label: µM
TGI: 93.4

compound: CC(C)(C)c1ccc(Oc2nccc(-c3c(-c4ccc(F)cc4)ncn3C3CCNCC3)n2)cc1
units-label: µM
TGI: 7.97

Ask: Return reported TGI; argument: COc1ccc(C(=O)c2cc(OC)c(OC)c(OC)c2)cc1OC(=O)CCl
Reply: 12.9

Ask: Also check COc1cc2ccc(/C=C\[N+](=O)[O-])cc2cc1OC
Reply: 5.44

Ask: Also check CCOC(=O)C1=C(C)OC2(O)C=CC(O)=C3C(=O)N(c4ccccc4)C(=O)C312 (stereo not given)
Reply: 86.1

Ask: Also check Cn1c2ccccc2c2c(-c3ccccc3)cc3c(c21)C(=O)C=CC3=O
Reply: 4.8

Ask: Also check COc1cc(C(=O)O[C@H](C(=O)NCCCCCNC(=O)[C@@H](OC(=O)c2cc(OC)cc3c(C)cccc23)[C@]2(C)CO2)[C@]2(C)CO2)c2cccc(C)c2c1
Reply: 10.2

Ask: Also check C=C(C)C1=CCC[C@]2(C1)N=C(OC)[C@@H](C(C)C)N=C2OC
Reply: 47.9

====

# Test system: HCC-2998 colon
# run-description: NCI tumour cell line growth inhibition, 48 h
quantity: TGI

Record excerpt, results attached:
compound: O=C1CCCCC/C1=C\c1cccc(Cl)c1
TGI: > 100 µM
//
compound: Clc1ccc(C2SCc3nc4ccccc4n32)c(Cl)c1 (stereo not given)
TGI: 28.8 µM
//
compound: CCOC(=O)C1=C(C)OC2(O)C=CC(O)=C3C(=O)N(c4ccccc4)C(=O)C312 (stereo not given)
TGI: 73.9 µM

Ask: Return reported TGI; argument: O=C(O)CNC(=O)c1ccc(-c2ccccc2)cc1
Reply: > 100 µM

====

TGI values for the compounds below.
# Test system: OVCAR-8 ovarian
# run-description: NCI tumour cell line growth inhibition, 48 h

Record excerpt, results attached:
compound: C/C(=N\NS(=O)(=O)c1ccc(C)cc1)C(CN1CCCCC1)C(c1ccccc1)c1c(O)c2ccccc2oc1=O (stereo not given)
assay-system: OVCAR-8 ovarian
val: > 100 µM
--
compound: O=c1[nH]c2cc([N+](=O)[O-])ccc2nc1/C(=N/Nc1ccccc1)C(O)c1ccccc1Cl (stereo not given)
assay-system: OVCAR-8 ovarian
val: > 100 µM
--
compound: CCOC(=O)NC(=O)c1cn(CCOC(=O)CCCCCCCCC(=O)OCCn2cc(C(=O)NC(=O)OCC)c(=O)[nH]c2=O)c(=O)[nH]c1=O
assay-system: OVCAR-8 ovarian
val: > 100 µM
--
compound: CC1C2(C)OC(=N)C(C#N)(C(c3ccccc3)O2)C1(C#N)C#N (stereo not given)
assay-system: OVCAR-8 ovarian
val: > 100 µM
--
compound: COc1cc(/C=C/C(=O)c2cccc(Nc3nc(Nc4ccccc4)nc(Nc4ccccc4)n3)c2)cc(OC)c1OC
assay-system: OVCAR-8 ovarian
val: > 100 µM

Proceeding to the next compound to report its TGI.
Ask: Return reported TGI; argument: O=[N+]([O-])c1cc(C(F)(F)F)cc([N+](=O)[O-])c1CCl
Reply: 4.91 µM
